# TEST_NAME: Cytotoxicity against paclitaxel resistant human MDA-MB-231/TxR cells measured after 72 hrs […]
# Assay type: functional, cell-based
pIC50: −log10 of the molar value.

[
  {
    "STRUCTURE_SMILES": "COc1cc(C(=O)c2nc(-c3ccc(C)c(O)c3)ccc2F)cc(OC)c1OC",
    "pIC50": 8.68
  }
]

###

# ASSAY_TARGET: CYP2C19 (Homo sapiens, UniProt P33261)
# Sequence (P33261 whole entry): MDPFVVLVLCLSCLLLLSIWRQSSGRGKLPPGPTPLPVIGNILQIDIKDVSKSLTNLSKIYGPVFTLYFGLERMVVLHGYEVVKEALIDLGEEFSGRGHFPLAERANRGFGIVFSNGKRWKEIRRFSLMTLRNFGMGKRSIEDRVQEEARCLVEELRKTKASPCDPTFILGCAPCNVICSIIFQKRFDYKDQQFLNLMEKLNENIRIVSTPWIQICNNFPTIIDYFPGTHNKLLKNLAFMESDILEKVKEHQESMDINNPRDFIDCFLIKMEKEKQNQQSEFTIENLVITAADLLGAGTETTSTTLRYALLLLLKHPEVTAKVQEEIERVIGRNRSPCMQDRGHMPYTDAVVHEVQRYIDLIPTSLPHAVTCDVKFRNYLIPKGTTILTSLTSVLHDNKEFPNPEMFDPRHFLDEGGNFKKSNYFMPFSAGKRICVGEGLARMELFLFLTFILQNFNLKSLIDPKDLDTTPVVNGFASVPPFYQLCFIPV
# TEST_NAME: Inhibition of CYP2C19 in human liver microsomes using omeprazole as substrate at 10 uM
# Assay type: ADME
# PARTICULARS: probe omeprazole

[
  {
    "STRUCTURE_SMILES": "COc1cc(C(=O)c2nc(-c3ccc(C)c(O)c3)ccc2F)cc(OC)c1OC",
    "inhibition at 10 µM / %": 49
  }
]

###

# ASSAY_TARGET: CYP2B6 (Homo sapiens)
# Sequence (P20813 whole entry): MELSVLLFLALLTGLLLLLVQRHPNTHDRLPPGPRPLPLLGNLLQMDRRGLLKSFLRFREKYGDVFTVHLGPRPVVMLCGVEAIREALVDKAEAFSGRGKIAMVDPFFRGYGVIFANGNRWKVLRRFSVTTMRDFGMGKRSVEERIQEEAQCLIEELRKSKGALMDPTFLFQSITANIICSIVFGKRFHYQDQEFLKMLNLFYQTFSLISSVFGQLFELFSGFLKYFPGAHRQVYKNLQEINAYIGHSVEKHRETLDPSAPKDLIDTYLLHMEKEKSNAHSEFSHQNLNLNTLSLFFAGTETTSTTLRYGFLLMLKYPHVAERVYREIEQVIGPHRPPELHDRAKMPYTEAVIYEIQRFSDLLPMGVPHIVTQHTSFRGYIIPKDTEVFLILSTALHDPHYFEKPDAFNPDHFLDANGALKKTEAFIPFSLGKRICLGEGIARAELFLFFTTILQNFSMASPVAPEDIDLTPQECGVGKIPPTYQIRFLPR
# TEST_NAME: Inhibition of CYP2B6 in human liver microsomes using bupropion as substrate at 10 uM
# Type: ADME
# PARTICULARS: probe bupropion

[
  {
    "STRUCTURE_SMILES": "COc1cc(C(=O)c2nc(-c3ccc(C)c(O)c3)ccc2F)cc(OC)c1OC",
    "inhibition at 10 µM (%)": 12
  }
]

###

# Tested on: CYP3A
# TEST_NAME: Inhibition of CYP3A in human liver microsomes using midazolam as substrate at 10 uM
# Format: ADME
# PARTICULARS: probe midazolam

[
  {
    "STRUCTURE_SMILES": "COc1cc(C(=O)c2nc(-c3ccc(C)c(O)c3)ccc2F)cc(OC)c1OC",
    "UNIT_TEXT": "%",
    "inhibition at 10 µM": 34.7
  }
]

###

Quick reference for pIC50 among some compounds
# Test system: SK-BR-3
# TEST_NAME: Antiproliferative activity against human SK-BR-3 cells assessed as cell growth inhibition incubated for 72 hrs by MTS assay
# Assay type: functional, cell-based
# PARTICULARS: SK-BR-3, 72 h
pIC50: −log10 of the molar value.
OBSERVABLE: pIC50

[
  {
    "STRUCTURE_SMILES": "COCCOc1c(OC)cc(C(=O)c2cccc(-c3ccc(C)cc3)n2)cc1OC",
    "MEAS_VALUE": 8.38
  },
  {
    "STRUCTURE_SMILES": "COc1cc(C(=O)c2cccc(-c3ccc(N(C)C)cc3)n2)cc(OC)c1OC",
    "MEAS_VALUE": 7.26
  },
  {
    "STRUCTURE_SMILES": "COc1cc(C(=O)c2cc(OC)c(OC)c(OC)c2)nc(-c2ccc(C)cc2)c1",
    "MEAS_VALUE": 8.35
  },
  {
    "STRUCTURE_SMILES": "COc1cc(C(=O)c2cccc(-c3ccc(C)c(O)c3)n2)cc(OC)c1OC",
    "MEAS_VALUE": 8.39
  },
  {
    "STRUCTURE_SMILES": "COc1cc(C(=O)c2cc(F)cc(-c3ccc(C(F)F)cc3)c2)cc(OC)c1OC",
    "MEAS_VALUE": 7.28
  },
  {
    "STRUCTURE_SMILES": "COc1cc(C(=O)c2cccc(-c3ccc(C)c(NC(C)=O)c3)n2)cc(OC)c1OC",
    "MEAS_VALUE": 7.82
  },
  {
    "STRUCTURE_SMILES": "COc1cc(C(=O)c2cccc(-c3ccc(C(F)F)cc3)n2)cc(OC)c1OC",
    "MEAS_VALUE": 8.42
  },
  {
    "STRUCTURE_SMILES": "COc1cc(C(=O)c2nc(-c3ccc(C)c(O)c3)[nH]c2C)cc(OC)c1OC",
    "MEAS_VALUE": 7.59
  },
  {
    "STRUCTURE_SMILES": "COc1cc(C(=O)c2cc(C)cc(-c3ccc(C)cc3)n2)cc(OC)c1OC",
    "MEAS_VALUE": 8.26
  },
  {
    "STRUCTURE_SMILES": "COc1cc(C(=O)c2cncc(-c3ccc(C)cc3)n2)cc(OC)c1OC",
    "MEAS_VALUE": 8.15
  }
]
